Molecular target: Na^+ /H^+ exchanger of rabbit erythrocytes (Oryctolagus cuniculus, UniProt P23791)
Construct: endogenous in cells
Sequence (P23791 whole entry): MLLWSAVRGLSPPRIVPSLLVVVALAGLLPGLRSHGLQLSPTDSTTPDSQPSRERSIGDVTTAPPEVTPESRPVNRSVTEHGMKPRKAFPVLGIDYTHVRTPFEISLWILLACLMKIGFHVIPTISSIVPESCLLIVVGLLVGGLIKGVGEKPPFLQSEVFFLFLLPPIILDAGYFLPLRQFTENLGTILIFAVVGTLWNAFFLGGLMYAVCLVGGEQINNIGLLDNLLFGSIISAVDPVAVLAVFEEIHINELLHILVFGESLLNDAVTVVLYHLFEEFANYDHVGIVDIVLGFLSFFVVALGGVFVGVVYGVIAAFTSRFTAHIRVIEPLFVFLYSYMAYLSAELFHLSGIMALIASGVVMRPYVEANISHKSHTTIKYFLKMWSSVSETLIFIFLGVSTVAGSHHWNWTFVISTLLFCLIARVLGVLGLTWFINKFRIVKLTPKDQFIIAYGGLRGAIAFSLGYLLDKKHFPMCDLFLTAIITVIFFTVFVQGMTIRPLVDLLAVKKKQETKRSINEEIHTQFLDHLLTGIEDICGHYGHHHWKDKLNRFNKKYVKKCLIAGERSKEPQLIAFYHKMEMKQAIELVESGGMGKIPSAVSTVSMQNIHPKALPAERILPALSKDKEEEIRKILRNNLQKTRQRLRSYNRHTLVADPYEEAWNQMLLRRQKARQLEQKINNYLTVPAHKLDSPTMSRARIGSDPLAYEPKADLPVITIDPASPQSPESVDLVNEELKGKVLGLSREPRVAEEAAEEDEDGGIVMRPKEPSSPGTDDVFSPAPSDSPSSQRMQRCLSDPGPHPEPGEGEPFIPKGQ
Experiment: Inhibition of the Na^+ /H^+ exchanger of rabbit erythrocytes (amiloride-sensitive sodium influx, flame photometry)
Conditions: erythrocytes of rabbits on 2% cholesterol diet; hyperosmolar salt-sucrose medium, pH 7.4, 37° C.
Structures can show the parent of a compound that is named as a salt.
PARAMETER: IC50 (nM)

COMPOUND | UNIT_OF_MEASUREMENT | OBSERVED_MEASUREMENT
Cc1cc(C(C)CO)c(C(F)(F)F)cc1C(=O)N=C(N)N (racemic) [Example 1, hydrochloride] | nM | 1.2
